Experiment: Tmax in C57B6 mouse at 10 mg/kg, po
Format: ADME, organism-based
Design: dose 10 mg/kg, route oral
Settings: in vivo
endpointName: Tmax (h)

compoundStructure: C[C@@H]1CN(c2ccc(F)cc2C(F)(F)F)CCN1S(=O)(=O)c1ccc([C@@](O)(C(N)=O)C(F)(F)F)s1
endpointName: Tmax
unitsText: h
observedMeasurement: 2

1: C[C@@H]1CN(c2ccc(F)cc2C(F)(F)F)CCN1S(=O)(=O)c1cccc([C@@](O)(C(N)=O)C(F)(F)F)c1
2: C[C@@H]1CN(c2ccc(F)cc2C(F)(F)F)CCN1S(=O)(=O)c1ccc([C@@](C)(O)C(F)(F)F)s1
Req: Hi there, can you help? I need to know whether 1 or 2 has lower measured Tmax. Pick one and reply with its label.
Resp: 2
(2: 0.5 h, 1: 2 h)
